# Assayed System: T1, C-X-C chemokine receptor type 4 (CXCR4) (human (endogenous in SupT1)), P61073
# T1 chain: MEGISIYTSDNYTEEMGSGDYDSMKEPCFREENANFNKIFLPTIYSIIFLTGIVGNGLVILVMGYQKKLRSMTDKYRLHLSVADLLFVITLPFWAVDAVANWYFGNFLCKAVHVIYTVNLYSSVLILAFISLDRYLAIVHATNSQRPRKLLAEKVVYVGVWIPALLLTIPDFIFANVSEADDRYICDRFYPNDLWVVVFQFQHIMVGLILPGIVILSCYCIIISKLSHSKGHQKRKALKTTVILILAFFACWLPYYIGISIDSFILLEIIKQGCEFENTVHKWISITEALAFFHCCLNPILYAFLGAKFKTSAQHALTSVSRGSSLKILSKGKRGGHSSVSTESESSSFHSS
# Assay Overview: flow cytometry on cells; competition with APC-labelled anti-CXCR4 antibody 12G5 (0.245 nM final) on SupT1 cells (5000 cells per well for Ki, or 50,000); compounds in PBS, antibody in PBS with 1% FCS; 2 h at 4 °C in the dark; Ki calculated from IC50 by the Cheng-Prusoff transformation with the Kd of 12G5 (151.5 pM)
Result Type: IC50
Your reply should be a number followed by the unit it is expressed in.

Exam item: Param item = IVRWSKKVPCVS (modifications not checked) [EPI-X4 WSC02] ; retrieve measured IC50.
Marked response: 290 nM
